B1: OR4K15 (parent)
chain: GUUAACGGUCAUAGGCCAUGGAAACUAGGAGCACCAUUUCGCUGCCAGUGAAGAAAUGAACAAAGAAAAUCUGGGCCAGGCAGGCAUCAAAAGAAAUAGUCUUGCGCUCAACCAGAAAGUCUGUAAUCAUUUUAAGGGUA

- Variants of: B1
- protocol-description: self-cleavage, relative activity (ratio to wild type); higher = more cleavage; in vitro, sequencing; the parent is a self-cleaving ribozyme
property-measured: self-cleavage
Answers are plain numbers.

>  <mutation-descriptor>
U3C A54C

>  <self-cleavage>
0.51

$$$$
>  <mutation-descriptor>
A23U A86G

>  <self-cleavage>
0.48

$$$$
>  <mutation-descriptor>
A11U A86G

>  <self-cleavage>
1.35

$$$$

For every item below, please supply its self-cleavage.
1. A86C U132C
2. U108C A135G
3. G73U A126G
4. U12A A67G
5. A5U U43G

0.9
0.01
0.07
1.56
1.19

For every item below, please supply its self-cleavage.
1. A82U U97A
2. G79A A110U
3. A24G U103C
4. U70C U124A
5. A54C A60U
6. C34A A52G

[0.34, 0.24, 0.32, 0.17, 1.33, 1.28]

For every item below, please supply its self-cleavage.
1. A66G A129U
2. U100A U130C

1: 1.47; 2: 0.09

For every item below, please supply its self-cleavage.
1. A4G A56G
2. A126U U131C
3. U26C A134G
4. A78U U139C
5. A60U

1: 1.02; 2: 1.84; 3: 1.05; 4: 0.28; 5: 1.29

For every item below, please supply its self-cleavage.
1. G79A U139C
2. A96G A135G
3. U39C A94G
4. C40A U108A
5. A64G U70A
6. A33C G50U
7. A33U A47U
8. A95C U103C

0.11
1.91
1.34
0
0.97
1.41
0.84
1.28

For every item below, please supply its self-cleavage.
1. C109A U120C
2. A111G A126U
3. C46A
4. A51G U133G

0.36
0.01
1.44
1.24

For every item below, please supply its self-cleavage.
1. A114C U127C
2. G31U A47G
3. U19A A63G
4. U38A A62G
5. U19C U133C

1: 0; 2: 1.05; 3: 1.59; 4: 1.19; 5: 2.01

For every item below, please supply its self-cleavage.
1. A30G A67G
2. A54G G106U

1: 0.91; 2: 0.02
